Entries with their measured pIC50, system UniProt:Q9Y233:
Remember the convention: pIC50 equals -log10 of concentration in molar.

compound: Cc1cc(C)n2cc(/C=C/c3nc(-c4cccs4)cn3COCC[Si](C)(C)C)nc2n1
target: UniProt:Q9Y233
pIC50: 7.09

compound: Cc1cccc2nc(CCc3nc(-c4cccs4)cn3C[C@@H](O)CN(C)CC#N)nn12
target: UniProt:Q9Y233
pIC50: 8.06

compound: Cc1cc(C)n2cc(/C=C/c3nc(-c4cccs4)cn3C)nc2n1
target: UniProt:Q9Y233
pIC50: 8.06

Recorded pIC50 of `Cc1cccc2nc(CCc3nc(-c4cccs4)cn3C[C@@H](O)CN3CCCC3)nn12` , please. 7.24

Recorded pIC50 of `Cc1ccc(-c2cn(C)c(/C=C/c3nc4c(F)cccn4n3)n2)o1` , please. 6.28

Recorded pIC50 of `COc1ccc(C)n2nc(/C=C/c3nc(-c4cccs4)cn3C)nc12` , please. 8.57

Recorded pIC50 of `COc1ccc(C)n2nc(CCc3nc(-c4ccsc4)cn3C)nc12` , please. 8.77

Recorded pIC50 of `Cc1ncc(C)n2nc(CCc3nc(-c4cccs4)cn3C)nc12` , please. 9.41

Recorded pIC50 of `Cn1cc(-c2cccs2)nc1/C=C/c1nc2c(F)cccn2n1` , please. 7.00

Recorded pIC50 of `COc1cccn2nc(CCc3nc(-c4cscc4C)cn3C)nc12` , please. 7.43

---

Entries with their measured IC50, system PDE10A (Homo sapiens (Human), UniProt Q9Y233):
Form entry: value (nM) — number only.

sample-smiles: Cc1ccc(C)n2nc(CCc3nc(-c4cscn4)cn3C)nc12
target: PDE10A (Homo sapiens (Human), UniProt Q9Y233)
Sequence (Q9Y233 716-1055): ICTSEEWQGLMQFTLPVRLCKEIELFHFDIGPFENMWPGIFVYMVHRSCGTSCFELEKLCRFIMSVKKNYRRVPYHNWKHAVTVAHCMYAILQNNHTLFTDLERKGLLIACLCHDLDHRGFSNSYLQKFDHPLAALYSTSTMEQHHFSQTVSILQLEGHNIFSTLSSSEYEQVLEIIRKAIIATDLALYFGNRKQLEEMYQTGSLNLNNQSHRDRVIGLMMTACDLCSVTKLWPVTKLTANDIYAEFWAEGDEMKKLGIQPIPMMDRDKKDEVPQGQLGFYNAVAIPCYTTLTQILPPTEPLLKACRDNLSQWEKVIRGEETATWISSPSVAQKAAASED
observed-result: 0.4
//
sample-smiles: Cc1ccc(-c2cn(C)c(CCc3nc4c(C)ccc(C)n4n3)n2)o1
target: PDE10A (Homo sapiens (Human), UniProt Q9Y233)
observed-result: 4.2
//
sample-smiles: COc1ccc(C)n2nc(CCc3nc(-c4cccnc4)cn3C)nc12
target: PDE10A (Homo sapiens (Human), UniProt Q9Y233)
observed-result: 24
//
sample-smiles: Cc1cc(C)n2cc(CCc3nc(-c4cccs4)cn3C(C)C)nc2n1
target: PDE10A (Homo sapiens (Human), UniProt Q9Y233)
observed-result: 160

Lab note: need IC50 for `COc1ccc(C)n2nc(CCc3nc(-c4cccs4)c[nH]3)nc12` on PDE10A (Homo sapiens (Human), UniProt Q9Y233), anyone have it? 1.1

Lab note: need IC50 for `Cc1cc(C)n2cc(CCc3nc(-c4ccsc4)cn3C)nc2n1` on PDE10A (Homo sapiens (Human), UniProt Q9Y233), anyone have it? 33

Lab note: need IC50 for `CCN(CC)C[C@H](O)Cn1cc(-c2cccs2)nc1CCc1nc2cccc(C)n2n1` on PDE10A (Homo sapiens (Human), UniProt Q9Y233), anyone have it? 77

Lab note: need IC50 for `Cc1cccc2nc(CCc3nc(-c4cccs4)cn3[C@@H](C)CO)nn12` on PDE10A (Homo sapiens (Human), UniProt Q9Y233), anyone have it? 6.4

Lab note: need IC50 for `CCCn1cc(-c2cccs2)nc1CCc1nc2c(OC)ccc(C)n2n1` on PDE10A (Homo sapiens (Human), UniProt Q9Y233), anyone have it? 1.2

Lab note: need IC50 for `COc1ccc(C)n2nc(CCc3nc(-c4cscc4C)cn3C)nc12` on PDE10A (Homo sapiens (Human), UniProt Q9Y233), anyone have it? 3.1

Lab note: need IC50 for `Cc1cccc2nc(/C=C/c3nc(-c4ccco4)cn3COCC[Si](C)(C)C)nn12` on PDE10A (Homo sapiens (Human), UniProt Q9Y233), anyone have it? 46
